method: Oral bioavailability in rat at 10 mg/kg
Assay type: ADME, organism-based
condition_context: in vivo
readout_name: bioavailability

The value of bioavailability measured for the compound `Cc1nc(NCC(F)(F)F)nc(N[C@@H]2C[C@H](CO)[C@@H](O)[C@H]2O)c1-c1nc2ccccc2s1.Cl` turned out to be 82%

----------
method: AUC (0 to 6 hrs) in rat at 10 mg/kg, po
Type: ADME, organism-based
Set-up: time < 6 hr, dose 10 mg/kg, route oral
condition_context: plasma
readout_name: AUC(0-t) at 6 h
Returns: string containing the number followed by the unit.

Reference set, count: 3
chemical_structure: Cc1nc(NCC2CCC2)nc(N[C@@H]2C[C@H](CO)[C@@H](O)[C@H]2O)c1-c1nc2ccccc2s1
AUC(0-t) at 6 h: 0.5 µM·h
--
chemical_structure: Cc1nc(N)nc(N[C@@H]2C[C@H](CO)[C@@H](O)[C@H]2O)c1-c1nc2ccccc2s1
AUC(0-t) at 6 h: 4.7 µM·h
--
chemical_structure: CNc1nc(C)c(-c2nc3ccccc3s2)c(N[C@@H]2C[C@H](CO)[C@@H](O)[C@H]2O)n1
AUC(0-t) at 6 h: 2.7 µM·h

Attention now turns to another entry.
The value of AUC(0-t) at 6 h measured for the compound `Cc1nc(NCc2ccncc2)nc(N[C@@H]2C[C@H](CO)[C@@H](O)[C@H]2O)c1-c1nc2ccccc2s1` turned out to be 0.1 µM·h

----------
method: Cytotoxicity against human hepatoma cells assessed as decrease in RNA level after 3 days by RT-PCR analysis
Format: cell-based
condition_context: human hepatoma cells
readout_name: CC50 at 72 h (µM)
Give just the number in µM; leave the unit off.

chemical_structure: Cc1nc(NCC2CC2)nc(N[C@@H]2C[C@H](CO)[C@@H](O)[C@H]2O)c1-c1nc2ccccc2s1
display_unit: µM
CC50 at 72 h: 8

chemical_structure: Cc1nc(Nc2nccs2)nc(N[C@@H]2C[C@H](CO)[C@@H](O)[C@H]2O)c1-c1nc2ccccc2s1
display_unit: µM
CC50 at 72 h: 15

chemical_structure: Nc1nc(Cl)c(-c2nc3ccc(Cl)cc3s2)c(N[C@@H]2C[C@H](CO)[C@@H](O)[C@H]2O)n1
display_unit: µM
CC50 at 72 h: 16

Attention now turns to another entry.
The value of CC50 at 72 h measured for the compound `Cc1nc(NCc2cccs2)nc(N[C@@H]2C[C@H](CO)[C@@H](O)[C@H]2O)c1-c1nc2ccccc2s1` turned out to be 6

----------
method: AUC (0 to 24 hrs) in rat at 2 mg/kg, iv and 10 mg/kg, po
Assay type: ADME, organism-based
condition_context: plasma
readout_name: AUC(0-t) (µM·h)
Give just the number in µM·h; leave the unit off.

The value of AUC(0-t) measured for the compound `Cc1nc(NCC(F)(F)F)nc(N[C@@H]2C[C@H](CO)[C@@H](O)[C@H]2O)c1-c1nc2ccccc2s1.Cl` turned out to be 7

----------
Test system: Liver
method: Drug uptake in rat liver per mg tissue at 10 mg/kg, po after 6 hrs
Format: ADME, organism-based
Parameters: dose 10 mg/kg, route oral
condition_context: in vivo
Quick reference: log10 of Drug uptake of the listed items.
Scale: decimal log of Drug uptake, Drug uptake in ng/g.

Recorded log10 of Drug uptake for `Cc1nc(NCc2ccccc2)nc(N[C@@H]2C[C@H](CO)[C@@H](O)[C@H]2O)c1-c1nc2ccccc2s1` on Liver was 2.63

Recorded log10 of Drug uptake for `Cc1nc(NCc2cccnc2)nc(N[C@@H]2C[C@H](CO)[C@@H](O)[C@H]2O)c1-c1nc2ccccc2s1` on Liver was 1.00

Recorded log10 of Drug uptake for `Nc1ncc(-c2nc3ccccc3s2)c(N[C@@H]2C[C@H](CO)[C@@H](O)[C@H]2O)n1` on Liver was 2.40

Recorded log10 of Drug uptake for `Cc1nc(N(C)C)nc(N[C@@H]2C[C@H](CO)[C@@H](O)[C@H]2O)c1-c1nc2ccccc2s1` on Liver was 3.01

Recorded log10 of Drug uptake for `Cc1nc(Nc2ccccc2)nc(N[C@@H]2C[C@H](CO)[C@@H](O)[C@H]2O)c1-c1nc2ccccc2s1` on Liver was 2.99

Recorded log10 of Drug uptake for `Cc1nc(NCc2ccccn2)nc(N[C@@H]2C[C@H](CO)[C@@H](O)[C@H]2O)c1-c1nc2ccccc2s1` on Liver was 2.10

Recorded log10 of Drug uptake for `Cc1nc(NCC2CCC2)nc(N[C@@H]2C[C@H](CO)[C@@H](O)[C@H]2O)c1-c1nc2ccccc2s1` on Liver was 2.18

Recorded log10 of Drug uptake for `Cc1nc(NCc2ccncc2)nc(N[C@@H]2C[C@H](CO)[C@@H](O)[C@H]2O)c1-c1nc2ccccc2s1` on Liver was 2.00

----------
Test system: Liver
method: Drug uptake in rat liver per mg tissue at 10 mg/kg, po after 6 hrs
Type: ADME, organism-based
Parameters: dose 10 mg/kg, route oral
condition_context: in vivo
readout_name: log10 of Drug uptake (log10 of the value in ng/g)
Scale: decimal log of Drug uptake, Drug uptake in ng/g.

Reference set, count: 7
chemical_structure: Cc1nc(NCCC(F)(F)F)nc(N[C@@H]2C[C@H](CO)[C@@H](O)[C@H]2O)c1-c1nc2ccccc2s1
log10 of Drug uptake: 3.03

chemical_structure: COCCNc1nc(C)c(-c2nc3ccccc3s2)c(N[C@@H]2C[C@H](CO)[C@@H](O)[C@H]2O)n1
log10 of Drug uptake: 2.94

chemical_structure: Cc1nc(NCc2cccs2)nc(N[C@@H]2C[C@H](CO)[C@@H](O)[C@H]2O)c1-c1nc2ccccc2s1
log10 of Drug uptake: 2.26

chemical_structure: Cc1nc(NCC2CC2)nc(N[C@@H]2C[C@H](CO)[C@@H](O)[C@H]2O)c1-c1nc2ccccc2s1
log10 of Drug uptake: 2.61

chemical_structure: Cc1nc(NCCOC(C)C)nc(N[C@@H]2C[C@H](CO)[C@@H](O)[C@H]2O)c1-c1nc2ccccc2s1
log10 of Drug uptake: 2.11

chemical_structure: CCOC(=O)NCCNc1nc(C)c(-c2nc3ccccc3s2)c(N[C@@H]2C[C@H](CO)[C@@H](O)[C@H]2O)n1
log10 of Drug uptake: 1.80

chemical_structure: Cc1nc(NCc2nccs2)nc(N[C@@H]2C[C@H](CO)[C@@H](O)[C@H]2O)c1-c1nc2ccccc2s1
log10 of Drug uptake: 2.18

Recorded log10 of Drug uptake for `Cc1nc(NCC(C)C)nc(N[C@@H]2C[C@H](CO)[C@@H](O)[C@H]2O)c1-c1nc2ccccc2s1` on Liver was 2.71

----------
method: Cytotoxicity against human hepatoma cells after 3 days by MTS assay
Format: cell-based
condition_context: human hepatoma cells
readout_name: CC50 at 72 h

chemical_structure: CCc1nc(N(C)C)nc(N[C@@H]2C[C@H](CO)[C@@H](O)[C@H]2O)c1-c1nc2ccccc2s1
CC50 at 72 h: > 25 µM

chemical_structure: Cc1nc(NC(C)C)nc(N[C@@H]2C[C@H](CO)[C@@H](O)[C@H]2O)c1-c1nc2ccccc2s1
CC50 at 72 h: 14 µM

chemical_structure: Cc1nc(NCCNS(C)(=O)=O)nc(N[C@@H]2C[C@H](CO)[C@@H](O)[C@H]2O)c1-c1nc2ccccc2s1
CC50 at 72 h: > 25 µM

chemical_structure: Cc1nc(N[C@H](C)C(F)(F)F)nc(N[C@@H]2C[C@H](CO)[C@@H](O)[C@H]2O)c1-c1nc2ccccc2s1
CC50 at 72 h: 19 µM

The value of CC50 at 72 h measured for the compound `Nc1nc(Cl)c(-c2ccccc2)c(N[C@@H]2C[C@H](CO)[C@@H](O)[C@H]2O)n1` turned out to be > 25 µM

The value of CC50 at 72 h measured for the compound `CNc1ccc2sc(-c3c(Cl)nc(N)nc3N[C@@H]3C[C@H](CO)[C@@H](O)[C@H]3O)nc2c1` turned out to be 14 µM

The value of CC50 at 72 h measured for the compound `Cc1nc(NCC(F)(F)F)nc(N[C@@H]2C[C@H](CO)[C@@H](O)[C@H]2O)c1-c1nc2ccccc2s1` turned out to be > 25 µM

The value of CC50 at 72 h measured for the compound `Cc1nc(NCc2cccs2)nc(N[C@@H]2C[C@H](CO)[C@@H](O)[C@H]2O)c1-c1nc2ccccc2s1` turned out to be 5 µM

The value of CC50 at 72 h measured for the compound `Cc1nc(NCCNC(=O)NC(C)(C)C)nc(N[C@@H]2C[C@H](CO)[C@@H](O)[C@H]2O)c1-c1nc2ccccc2s1` turned out to be > 25 µM

----------
Quick reference: CC50 at 72 h of the listed items.
method: Cytotoxicity against human hepatoma cells after 3 days by MTS assay
Assay type: cell-based
condition_context: human hepatoma cells

Reference set, count: 5
chemical_structure: Cc1nc(Nc2ccccc2)nc(N[C@@H]2C[C@H](CO)[C@@H](O)[C@H]2O)c1-c1nc2ccccc2s1
CC50 at 72 h: > 25 µM

chemical_structure: CNc1nc(C)c(-c2nc3ccccc3s2)c(N[C@@H]2C[C@H](CO)[C@@H](O)[C@H]2O)n1
CC50 at 72 h: > 25 µM

chemical_structure: Nc1nc(Cl)c(-c2cnccn2)c(N[C@@H]2C[C@H](CO)[C@@H](O)[C@H]2O)n1
CC50 at 72 h: > 25 µM

chemical_structure: OC[C@H]1C[C@@H](Nc2nc(NCC(F)(F)F)nc(C3CC3)c2-c2nc3ccccc3s2)[C@H](O)[C@@H]1O
CC50 at 72 h: > 25 µM

chemical_structure: Nc1nc(Cl)c(-c2ccco2)c(N[C@@H]2C[C@H](CO)[C@@H](O)[C@H]2O)n1
CC50 at 72 h: > 25 µM

The value of CC50 at 72 h measured for the compound `CCOc1ccc2nc(-c3c(Cl)nc(N)nc3N[C@@H]3C[C@H](CO)[C@@H](O)[C@H]3O)sc2c1` turned out to be 25 µM

The value of CC50 at 72 h measured for the compound `Nc1nc(Cl)c(-c2nc3ccc(Cl)cc3s2)c(N[C@@H]2C[C@H](CO)[C@@H](O)[C@H]2O)n1` turned out to be > 25 µM

Values were extracted from ChEMBL document CHEMBL2016455.
